This collection of values is drawn from patent US20100041597A1.

What binding capacity (%) was measured for each of the following?
target: T1, PKC-βI (purified isoform) (Homo sapiens (Human), UniProt P05771 2-671); experiment: competitive ELISA on purified PKC-βI vs anti-PKC-βI Ab; PRE 50 µM
T1 construct: also called PKC-beta I
T1 sequence (P05771 2-671 limits assumed): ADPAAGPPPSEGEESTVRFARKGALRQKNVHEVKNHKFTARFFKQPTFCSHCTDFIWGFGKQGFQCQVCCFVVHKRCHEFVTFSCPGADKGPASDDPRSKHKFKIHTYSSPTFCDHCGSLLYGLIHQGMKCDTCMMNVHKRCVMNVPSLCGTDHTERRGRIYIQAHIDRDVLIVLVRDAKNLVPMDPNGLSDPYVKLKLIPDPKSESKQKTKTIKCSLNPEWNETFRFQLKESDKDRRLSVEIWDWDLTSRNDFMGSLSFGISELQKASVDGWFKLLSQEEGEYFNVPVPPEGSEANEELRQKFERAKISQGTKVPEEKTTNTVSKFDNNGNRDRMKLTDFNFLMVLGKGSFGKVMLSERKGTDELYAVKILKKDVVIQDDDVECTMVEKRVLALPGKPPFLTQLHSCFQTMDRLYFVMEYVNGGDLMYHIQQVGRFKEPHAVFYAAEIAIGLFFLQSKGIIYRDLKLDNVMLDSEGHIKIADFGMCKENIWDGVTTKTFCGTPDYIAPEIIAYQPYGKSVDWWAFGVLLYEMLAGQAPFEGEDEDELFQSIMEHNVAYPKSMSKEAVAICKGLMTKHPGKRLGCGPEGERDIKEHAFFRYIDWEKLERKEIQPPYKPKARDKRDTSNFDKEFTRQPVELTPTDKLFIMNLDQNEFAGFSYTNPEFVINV
One number for each entry, in %.

BINDER: Ac-KDAQNLIGISI-NH2 (Synthetic peptide; also called peptide PRE 4) [PRE 4]
MEASUREMENT_UNIT: %
binding capacity (%): 6.02

BINDER: Ac-RDAQNLI-NH2 (Synthetic peptide; also called peptide PRE 13; Ac-RDAQNLI-NH2) [PRE 13]
MEASUREMENT_UNIT: %
binding capacity (%): 0

BINDER: Ac-KDANQLIGISI-NH2 (Synthetic peptide; also called peptide PRE 6) [PRE 6]
MEASUREMENT_UNIT: %
binding capacity (%): 0

Below are some binders; for each one, tell me its binding capacity (%).
1. Ac-KDAQNLI-NH2 (Synthetic peptide; also called peptide PRE 12; Ac-KDAQNLI-NH2) [PRE 12]
2. Ac-ISIGILQNADK-NH2 (Synthetic peptide (retro form of PRE 4); also called peptide PRE 7) [PRE 7]
3. RRKKGGKDFVVKR (Synthetic peptide, solid phase synthesis; termini given free; also called peptide PRE 1) [PRE 1]
4. Ac-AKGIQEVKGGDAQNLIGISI-NH2 (Synthetic peptide; also called peptide PRE 3) [PRE 3]

Result ::
[0.79, 2.1, 19.8, 26]
